Would you kindly list residual activity for each of these compounds?
molecular target: UniProt:P21802; test: radiometric filter-binding kinase assay, Kinase HotSpot; conditions: compound 0.5 µM; ATP 10 µM
Sequence (P21802 whole entry, looked up): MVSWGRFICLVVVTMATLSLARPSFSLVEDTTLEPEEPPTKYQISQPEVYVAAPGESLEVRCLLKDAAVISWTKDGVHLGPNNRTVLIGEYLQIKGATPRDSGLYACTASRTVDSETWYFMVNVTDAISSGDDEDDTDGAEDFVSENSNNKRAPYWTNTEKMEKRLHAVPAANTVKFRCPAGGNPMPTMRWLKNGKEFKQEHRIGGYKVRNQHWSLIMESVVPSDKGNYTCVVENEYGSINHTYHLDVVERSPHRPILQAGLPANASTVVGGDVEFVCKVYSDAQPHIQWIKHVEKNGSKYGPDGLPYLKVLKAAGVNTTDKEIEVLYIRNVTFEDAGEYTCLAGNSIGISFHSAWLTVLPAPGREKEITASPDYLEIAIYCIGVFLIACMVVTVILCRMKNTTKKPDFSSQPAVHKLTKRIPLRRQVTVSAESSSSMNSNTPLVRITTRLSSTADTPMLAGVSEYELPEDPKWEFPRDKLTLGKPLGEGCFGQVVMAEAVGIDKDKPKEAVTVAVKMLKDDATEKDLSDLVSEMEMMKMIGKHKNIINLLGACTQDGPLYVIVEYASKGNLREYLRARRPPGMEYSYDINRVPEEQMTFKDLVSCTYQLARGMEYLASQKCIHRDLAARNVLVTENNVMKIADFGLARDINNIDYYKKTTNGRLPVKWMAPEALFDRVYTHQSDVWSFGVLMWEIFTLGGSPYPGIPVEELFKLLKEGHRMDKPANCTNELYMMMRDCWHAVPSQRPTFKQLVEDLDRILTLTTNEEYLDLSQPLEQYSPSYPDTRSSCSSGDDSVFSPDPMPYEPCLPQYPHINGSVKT
# output: bare number, implied unit %

Record lookup: for UniProt:P21802, what residual activity belongs to O=C1Nc2ccccc2/C1=C\c1c(Cl)[nH]c2ccccc12 ? 102

Please tell me: residual activity of C#Cc1cccc(Nc2ncnc3cc(OCCOC)c(OCCOC)cc23)c1 , system UniProt:P21802? 83.4

I'm curious: which residual activity was measured for CCCNC(=O)Nc1ccc(Oc2ncnc3cc(OC)c(OC)cc23)cc1Cl tested on UniProt:P21802? 91.3

# returns recorded residual activity (system: UniProt:P21802) for Nc1nc(Nc2ccc(S(N)(=O)=O)cc2)nn1C(=O)c1c(F)cccc1F 79.7

Test system UniProt:P21802; read-out residual activity; what value for COc1cc2nccc(Oc3ccc(NC(=S)NC(=O)c4ccccc4C)cc3)c2cc1OC ? 89

Give recorded residual activity with UniProt:P21802 for the following compound: CC(C)(C)c1nc2c3ccc(F)cc3c3c(=O)[nH]ccc3c2[nH]1 99.1

// map Nc1nc(Nc2ccc(S(N)(=O)=O)cc2)nn1C(=S)Nc1c(F)cccc1F to recorded residual activity (system: UniProt:P21802) 7.43

# value lookup — system UniProt:P21802, readout residual activity, item Clc1ccc(Nc2nnc(Cc3ccncc3)c3ccccc23)cc1 96

Tell me reported residual activity for CSc1nc(-c2ccc(F)cc2)c(-c2ccnc(NC(C)c3ccccc3)c2)[nH]1 (stereo not given) , tested with UniProt:P21802. 95.2

Enter reported residual activity observed with UniProt:P21802 for Oc1ccc(-c2nc(-c3ccc(F)cc3)c(-c3ccncc3)[nH]2)cc1 103

* * *

I'd appreciate it if you could supply residual activity values for the items below.
molecular target: UniProtKB P53350; experiment: radiometric filter-binding kinase assay, Kinase HotSpot; details: compound 0.5 µM; ATP 10 µM
Sequence (P53350 whole entry, looked up): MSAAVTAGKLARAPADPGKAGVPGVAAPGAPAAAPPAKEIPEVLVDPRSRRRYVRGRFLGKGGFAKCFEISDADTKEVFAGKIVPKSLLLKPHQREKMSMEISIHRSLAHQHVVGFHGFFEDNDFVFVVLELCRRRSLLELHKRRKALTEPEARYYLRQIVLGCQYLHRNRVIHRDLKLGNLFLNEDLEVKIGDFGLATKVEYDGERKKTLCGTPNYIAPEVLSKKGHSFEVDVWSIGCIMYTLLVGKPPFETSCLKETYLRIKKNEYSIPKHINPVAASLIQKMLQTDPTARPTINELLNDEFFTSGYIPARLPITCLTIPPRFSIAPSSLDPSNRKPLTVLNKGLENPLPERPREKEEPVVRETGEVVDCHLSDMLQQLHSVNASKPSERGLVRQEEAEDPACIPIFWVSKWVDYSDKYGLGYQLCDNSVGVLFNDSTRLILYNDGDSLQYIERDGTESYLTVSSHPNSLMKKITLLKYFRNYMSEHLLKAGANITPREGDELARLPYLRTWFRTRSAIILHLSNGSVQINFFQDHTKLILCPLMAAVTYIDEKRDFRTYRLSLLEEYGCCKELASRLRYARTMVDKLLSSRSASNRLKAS
Dear colleague, please return just the value in %, with no unit written.

residual activity for Cc1ccc(NC(=O)c2ccc(CN3CCN(C)CC3)cc2)cc1Nc1nc(-c2cccnc2)cs1 ? 101

Please look up its residual activity: C#Cc1cccc(Nc2ncnc3cc(OCCOC)c(OCCOC)cc23)c1 100

Please look up its residual activity: NC(=O)c1ccc(N(C(N)=O)c2c(F)cccc2F)nc1-c1ccc(F)cc1F 95.1

Could you tell me which residual activity is on file for COc1cc2nccc(Oc3ccc(NC(=S)NC(=O)c4ccccc4C)cc3)c2cc1OC ? 97.9

Recorded residual activity for Nc1nc(Nc2ccc(S(N)(=O)=O)cc2)nn1C(=S)Nc1c(F)cccc1F , please? 92.1

Which residual activity value belongs to O=c1cc(N2CCNCC2)oc2c(-c3ccccc3)cccc12 ? 96.6

Report residual activity for Clc1ccc(Nc2nnc(Cc3ccncc3)c3ccccc23)cc1 please. 95.9

For COc1ccc(-c2cnc3c(-c4ccsc4)cnn3c2)cc1 , what is its reported residual activity? 101

Look up residual activity for this compound: O=c1cc(-c2cccc3c2Sc2ccccc2S3)oc(N2CCOCC2)c1 102

Quick check: residual activity of COc1cc2ncnc(Nc3ccc(F)c(Cl)c3)c2cc1OCCCN1CCOCC1 ? 97

Quick check: residual activity of CS(=O)c1ccc(-c2nc(-c3ccc(F)cc3)c(-c3ccncc3)[nH]2)cc1 (configuration not stated) ? 100

Sample CCN1/C(=C/C(C)=O)Sc2ccc(OC)cc21 — what was its residual activity? 97

Sample CCCNC(=O)Nc1ccc(Oc2ncnc3cc(OC)c(OC)cc23)cc1Cl — what was its residual activity? 101

# lookup: residual activity of Nc1nc(Nc2ccc(S(N)(=O)=O)cc2)nn1C(=O)c1c(F)cccc1F 97.5

I'd like to know its residual activity. The compound in question is CC(C)n1cnc2c(Nc3cccc(Cl)c3)nc(NCCO)nc21 44.1

Please report the recorded residual activity for CC(C)(C)c1nc2c3ccc(F)cc3c3c(=O)[nH]ccc3c2[nH]1 . 10.5

What does the record list as residual activity for O=C(NC(NC(=S)Nc1ccc(F)c([N+](=O)[O-])c1)C(Cl)(Cl)Cl)C(c1ccccc1)c1ccccc1 (configuration not stated) ? 111

Which residual activity value belongs to CSc1nc(-c2ccc(F)cc2)c(-c2ccnc(NC(C)c3ccccc3)c2)[nH]1 (configuration not stated) ? 99.1

Param item = O=C1Nc2ccccc2/C1=C\c1c(Cl)[nH]c2ccccc12 ; retrieve measured residual activity. 95.4

Which residual activity is listed for Oc1ccc(-c2nc(-c3ccc(F)cc3)c(-c3ccncc3)[nH]2)cc1 ? 100

Value lookup for residual activity; key = O=C1Cc2c([nH]c3ccc([N+](=O)[O-])cc23)-c2ccccc2N1 98

Name the recorded residual activity for Cc1cc2ncc(-c3ccccc3)nc2cc1C . 101

* * *

biological target: RET (human) (UniProt P07949); assay: radiometric filter-binding kinase assay, Kinase HotSpot; settings: compound 0.5 µM; ATP 10 µM
Sequence (P07949 whole entry, looked up): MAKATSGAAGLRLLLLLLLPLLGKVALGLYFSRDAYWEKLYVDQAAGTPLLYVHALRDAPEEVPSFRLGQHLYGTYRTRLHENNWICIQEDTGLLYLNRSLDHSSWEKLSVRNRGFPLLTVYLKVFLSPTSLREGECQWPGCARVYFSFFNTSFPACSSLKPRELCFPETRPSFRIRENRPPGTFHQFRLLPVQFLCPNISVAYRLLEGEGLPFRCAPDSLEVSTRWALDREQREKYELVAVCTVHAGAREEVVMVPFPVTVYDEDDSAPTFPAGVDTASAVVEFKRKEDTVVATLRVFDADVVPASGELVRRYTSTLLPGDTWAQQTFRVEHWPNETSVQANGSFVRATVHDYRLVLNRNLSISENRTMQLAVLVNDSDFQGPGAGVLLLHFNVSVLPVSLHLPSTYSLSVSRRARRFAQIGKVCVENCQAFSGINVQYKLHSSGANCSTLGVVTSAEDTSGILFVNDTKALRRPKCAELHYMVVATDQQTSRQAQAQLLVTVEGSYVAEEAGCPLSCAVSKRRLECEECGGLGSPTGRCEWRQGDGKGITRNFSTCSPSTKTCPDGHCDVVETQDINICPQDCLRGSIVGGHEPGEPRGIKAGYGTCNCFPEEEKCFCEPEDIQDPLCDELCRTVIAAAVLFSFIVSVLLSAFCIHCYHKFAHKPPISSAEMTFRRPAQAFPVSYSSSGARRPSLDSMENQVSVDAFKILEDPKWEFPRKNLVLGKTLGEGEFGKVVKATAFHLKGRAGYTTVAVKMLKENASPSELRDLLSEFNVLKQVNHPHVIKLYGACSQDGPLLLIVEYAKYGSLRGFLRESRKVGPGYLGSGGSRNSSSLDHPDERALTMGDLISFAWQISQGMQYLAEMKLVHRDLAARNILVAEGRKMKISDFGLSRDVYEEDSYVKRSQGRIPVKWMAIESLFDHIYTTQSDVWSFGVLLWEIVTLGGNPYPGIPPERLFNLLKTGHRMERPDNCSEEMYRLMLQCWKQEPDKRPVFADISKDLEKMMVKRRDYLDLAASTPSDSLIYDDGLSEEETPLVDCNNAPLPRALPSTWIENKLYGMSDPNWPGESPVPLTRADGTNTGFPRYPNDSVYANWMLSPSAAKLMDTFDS
metric: residual activity (%)
Express the result in % but write the number alone.

Name the reported residual activity value associated with the compound O=c1cc(N2CCNCC2)oc2c(-c3ccccc3)cccc12 106

Value lookup for residual activity; key = CCCNC(=O)Nc1ccc(Oc2ncnc3cc(OC)c(OC)cc23)cc1Cl 8.42

Reported residual activity for CS(=O)c1ccc(-c2nc(-c3ccc(F)cc3)c(-c3ccncc3)[nH]2)cc1 (stereo unspecified) : what is it? 85.1

What residual activity value was documented for this compound, O=c1cc(-c2cccc3c2Sc2ccccc2S3)oc(N2CCOCC2)c1 ? 82.4

What value of measured residual activity is listed for O=C1Nc2ccccc2/C1=C\c1c(Cl)[nH]c2ccccc12 ? 93

Form field: reported residual activity of CSc1nc(-c2ccc(F)cc2)c(-c2ccnc(NC(C)c3ccccc3)c2)[nH]1 (stereo unspecified) 101

For O=C(NC(NC(=S)Nc1ccc(F)c([N+](=O)[O-])c1)C(Cl)(Cl)Cl)C(c1ccccc1)c1ccccc1 (stereo unspecified) , what is its reported residual activity? 103

If you can, please state the reported residual activity value of Nc1n[nH]c2nnc(-c3c(-c4ccccc4)nn4ccccc34)cc12 . 93.7

Item under review: C#Cc1cccc(Nc2ncnc3cc(OCCOC)c(OCCOC)cc23)c1 . Reported residual activity? 48.6

What measured residual activity goes with CC(C)[C@H](CO)Nc1nc(Nc2cccc(Cl)c2)c2ncn(C(C)C)c2n1 ? 81.4

Given the entry O=C1Nc2cc(Br)ccc2/C1=C1/Nc2ccccc2/C1=N\O , report its measured residual activity. 0.0602

Which measured residual activity value corresponds to Cc1cc2ncc(-c3ccccc3)nc2cc1C ? 88

Endpoint output: residual activity of Clc1ccc(Nc2nnc(Cc3ccncc3)c3ccccc23)cc1 . Value? 89.1

Return reported residual activity; argument: O=C1Cc2c([nH]c3ccc([N+](=O)[O-])cc23)-c2ccccc2N1 81.6

Returns the measured residual activity for the input compound. Input: COc1cc2ncnc(Nc3ccc(F)c(Cl)c3)c2cc1OCCCN1CCOCC1 76.9

Quick one: residual activity for Cc1ccc(NC(=O)c2ccc(CN3CCN(C)CC3)cc2)cc1Nc1nc(-c2cccnc2)cs1 ? 96.4

Return reported residual activity; argument: CC(C)(C)c1nc2c3ccc(F)cc3c3c(=O)[nH]ccc3c2[nH]1 18.3

Tell me the measured residual activity of COc1cc2nccc(Oc3ccc(NC(=S)NC(=O)c4ccccc4C)cc3)c2cc1OC , please. 86.7

Can you look up the measured residual activity of NC(=O)c1ccc(N(C(N)=O)c2c(F)cccc2F)nc1-c1ccc(F)cc1F for me? 93.1

Which residual activity is reported for this compound? Oc1ccc(-c2nc(-c3ccc(F)cc3)c(-c3ccncc3)[nH]2)cc1 89.3

Entry CC(C)n1cnc2c(Nc3cccc(Cl)c3)nc(NCCO)nc21 : reported residual activity = ? 82.9

Any idea what its residual activity is? The compound is COc1ccc(-c2cnc3c(-c4ccsc4)cnn3c2)cc1 92

For O=C(Nc1ccc(Cl)cc1)c1ccccc1NCc1ccncc1 , what is its reported residual activity? 58.9

For the compound Nc1nc(Nc2ccc(S(N)(=O)=O)cc2)nn1C(=S)Nc1c(F)cccc1F , what residual activity is on record? 3.09

Would you kindly share the measured residual activity for Nc1nc(Nc2ccc(S(N)(=O)=O)cc2)nn1C(=O)c1c(F)cccc1F ? 54.1

Look at this compound and give its reported residual activity. CCN1/C(=C/C(C)=O)Sc2ccc(OC)cc21 96.5

* * *

target: MKNK2 (human); experiment: radiometric filter-binding kinase assay, Kinase HotSpot; settings: compound 0.5 µM; ATP 10 µM
metric: residual activity (%)
Give just the numeric value; % need not be written.

API: value(readout= residual activity, system= MKNK2 (human), query= COc1cc2nccc(Oc3ccc(NC(=S)NC(=O)c4ccccc4C)cc3)c2cc1OC ) 94.3

Record CSc1nc(-c2ccc(F)cc2)c(-c2ccnc(NC(C)c3ccccc3)c2)[nH]1 (stereo not given) : what is its residual activity with MKNK2 (human)? 105

Hello, I am looking for reported residual activity with MKNK2 (human) for Nc1n[nH]c2nnc(-c3c(-c4ccccc4)nn4ccccc34)cc12 . Could you help? 98.3

# returns recorded residual activity (system: MKNK2 (human)) for O=C1Nc2ccccc2/C1=C\c1c(Cl)[nH]c2ccccc12 93.5

Record Oc1ccc(-c2nc(-c3ccc(F)cc3)c(-c3ccncc3)[nH]2)cc1 : what is its residual activity with MKNK2 (human)? 89.4

Param readout= residual activity; system= MKNK2 (human); entry= O=C(NC(NC(=S)Nc1ccc(F)c([N+](=O)[O-])c1)C(Cl)(Cl)Cl)C(c1ccccc1)c1ccccc1 (stereo not given) ; returns value. 135

Form field: residual activity recorded for COc1ccc(-c2cnc3c(-c4ccsc4)cnn3c2)cc1 with MKNK2 (human) (enter value) 37.5

Find residual activity (MKNK2 (human)) for the entry O=c1cc(N2CCNCC2)oc2c(-c3ccccc3)cccc12 107

# value lookup — system MKNK2 (human), readout residual activity, item CC(C)n1cnc2c(Nc3cccc(Cl)c3)nc(NCCO)nc21 94.8

Notebook: pull reported residual activity for MKNK2 (human), entry COc1cc2ncnc(Nc3ccc(F)c(Cl)c3)c2cc1OCCCN1CCOCC1 54.1

Hello, I am looking for reported residual activity with MKNK2 (human) for CCN1/C(=C/C(C)=O)Sc2ccc(OC)cc21 . Could you help? 93.8

Return residual activity measured with MKNK2 (human) given this compound: Cc1ccc(NC(=O)c2ccc(CN3CCN(C)CC3)cc2)cc1Nc1nc(-c2cccnc2)cs1 103

Query residual activity on MKNK2 (human) for NC(=O)c1ccc(N(C(N)=O)c2c(F)cccc2F)nc1-c1ccc(F)cc1F 101

Give the reported residual activity for CC(C)(C)c1nc2c3ccc(F)cc3c3c(=O)[nH]ccc3c2[nH]1 (system: MKNK2 (human)). 62

Please tell me: residual activity of O=c1cc(-c2cccc3c2Sc2ccccc2S3)oc(N2CCOCC2)c1 , system MKNK2 (human)? 117

Give residual activity (MKNK2 (human)) of the following compound: CCCNC(=O)Nc1ccc(Oc2ncnc3cc(OC)c(OC)cc23)cc1Cl 81.3

Which measured residual activity belongs to O=C1Nc2cc(Br)ccc2/C1=C1/Nc2ccccc2/C1=N\O , tested on MKNK2 (human)? 75.3

Request: residual activity, test system MKNK2 (human), entry Clc1ccc(Nc2nnc(Cc3ccncc3)c3ccccc23)cc1 101

Param readout= residual activity; system= MKNK2 (human); entry= Cc1cc2ncc(-c3ccccc3)nc2cc1C ; returns value. 94.8

What value of residual activity on MKNK2 (human) does O=C1Cc2c([nH]c3ccc([N+](=O)[O-])cc23)-c2ccccc2N1 have? 92.9

Notebook entry, MKNK2 (human) assay: residual activity of Nc1nc(Nc2ccc(S(N)(=O)=O)cc2)nn1C(=S)Nc1c(F)cccc1F = ? 17.2

Lab request: please report residual activity under test system MKNK2 (human) for CS(=O)c1ccc(-c2nc(-c3ccc(F)cc3)c(-c3ccncc3)[nH]2)cc1 (stereo not given) 94.4

Hello, I am looking for reported residual activity with MKNK2 (human) for CC(C)[C@H](CO)Nc1nc(Nc2cccc(Cl)c2)c2ncn(C(C)C)c2n1 . Could you help? 87.5

Enter reported residual activity observed with MKNK2 (human) for Nc1nc(Nc2ccc(S(N)(=O)=O)cc2)nn1C(=O)c1c(F)cccc1F 95.9

Lab note: need residual activity with MKNK2 (human) for entry O=C(Nc1ccc(Cl)cc1)c1ccccc1NCc1ccncc1 , please look it up. 82.3
